I'd appreciate it if you could supply IC50 values for the items below.
System: BT-549
Assay: Cytotoxicity against human BT549 cells assessed as reduction in cell viability after 24 hrs by MTT assay
Format: functional, cell-based
Details: BT-549, 24 h
Answer with a number only, understood to be in µM.

*Q* Reported IC50, compound COc1ccc(CC2COc3cc(C)ccc3C2=O)cc1 (stereo not given) : ____
*A* 42.1

*Q* Reported IC50, compound O=C1c2ccccc2OCC1Cc1ccc(Cl)cc1 (stereo not given) : ____
*A* 69.3

*Q* Reported IC50, compound O=C1c2ccccc2OCC1Cc1ccc(O)cc1 (stereo not given) : ____
*A* 20.1

*Q* Reported IC50, compound Cc1ccc(CC2COc3ccccc3C2=O)cc1 (stereo not given) : ____
*A* 42.2

*Q* Reported IC50, compound COc1ccc2c(c1)OCC(Cc1ccc(O)cc1)C2=O (stereo not given) : ____
*A* 24.3

*Q* Reported IC50, compound Cc1ccc2c(c1)OCC(Cc1ccc(O)cc1)C2=O (stereo not given) : ____
*A* 28.7

*Q* Reported IC50, compound COc1ccc(CC2COc3ccccc3C2=O)c(OC)c1 (stereo not given) : ____
*A* 61.9

*Q* Reported IC50, compound COc1ccc2c(c1)OCC(Cc1ccc(OC)c(O)c1)C2=O (stereo not given) : ____
*A* 30.6
